measure: melting point

Example entries begin here.
Cc1cn2cc(-c3cc4ccc(N5CCC(N6CCOCC6)C5)cc4oc3=O)cc2c(C)n1 (stereo not shown)    118 to 122 °C
CNCCCCc1ccc2cc(-c3cn4cc(C)nc(C)c4n3)c(=O)oc2c1    180 to 184 °C

Attention now turns to another entry.
Problem: Return reported melting point; argument: CCN1CCCN(c2ccc3cc(-c4cc5cnc(C)cn5c4)c(=O)oc3c2)CC1
Solution: 130 to 133 °C

---

Reported melting point values for a set of molecules

Example entries begin here.
C[C@@H]1CN(c2ccc3cc(-c4cn5cc(Cl)cnc5n4)c(=O)oc3c2)C[C@H](C)N1    265 to 271 °C
CCc1ccn2cc(-c3cc4ccc(N5CCCN(C)CC5)cc4oc3=O)nc2c1    181 to 187 °C
Cc1cn2cc(-c3cc4ccc(N5CC[C@@H](CN(C)C)C5)cc4oc3=O)nc2c(C)n1    198 to 200 °C
CCc1cc(C)cn2cc(-c3cc4ccc(N5C[C@@H](C)N[C@@H](C)C5)cc4oc3=O)nc12    203 to 208 °C
Cc1cn2cc(-c3cc4ccc(CCCN)cc4oc3=O)nc2c(C)n1    212 to 216 °C

Problem: Return reported melting point; argument: C[C@H]1CN(c2ccc3cc(-c4cn5cc(F)cc(F)c5n4)c(=O)oc3c2)CCN1
Solution: 218 to 224 °C

Problem: Return reported melting point; argument: Cc1cccc(-c2cc3ccc(N4CCN[C@@H](C)C4)cc3oc2=O)c1
Solution: 101 to 103 °C

Problem: Return reported melting point; argument: Cc1cn2cc(-c3cc4ccc(CCNC(CO)CO)cc4oc3=O)nc2c(C)n1
Solution: 217 to 221 °C

Problem: Return reported melting point; argument: Cc1cn2cc(-c3cc4ccc(N5CCN(C)CC5)cc4oc3=O)ccc2n1
Solution: 235 to 238 °C

Problem: Return reported melting point; argument: CCN1CCC[C@H]2CN(c3ccc4cc(-c5cn6cc(C)nc(C)c6n5)c(=O)oc4c3)C[C@H]21
Solution: 217 to 221 °C

Problem: Return reported melting point; argument: Cc1csc2nc(-c3cc4ccc(N5CCNCC5)cc4oc3=O)cn12
Solution: > 300 °C

Problem: Return reported melting point; argument: C[C@H]1CN(c2ccc3cc(-c4ccccn4)c(=O)oc3c2)CCN1
Solution: 145 to 147 °C

Problem: Return reported melting point; argument: O=c1oc2cc(N3CCNCC3)cc(F)c2cc1-c1cn2cccc(Cl)c2n1
Solution: 241 to 250 °C

Problem: Return reported melting point; argument: Cc1cc(F)c2nc(-c3cc4ccc(N[C@H]5CCNC5)cc4oc3=O)cn2c1
Solution: 230 to 240 °C

Problem: Return reported melting point; argument: Cc1cn2cc(-c3cc4ccc(N5C[C@@H]6C[C@H]5CN6C)cc4oc3=O)nc2c(C)n1
Solution: 219 to 226 °C

Problem: Return reported melting point; argument: O=c1oc2cc(N3CCNCC3)ccc2cc1-c1ccc(Cl)cn1
Solution: 180 to 182 °C

Problem: Return reported melting point; argument: C[C@@H]1CN(c2ccc3cc(-c4ccc5c(c4)OCO5)c(=O)oc3c2)C[C@H](C)N1
Solution: 123 to 125 °C
